// values below are reported cytotoxicity at 10 µM
measurementDescription: Toxicity liver stage against HepG2, at 10uM
Format: cell-based
Parameters: test concentration 10 uM, cell line HepG2-A16-CD81EGFP
experimentalSetup: human, HepG2-A16-CD81EGFP cells; read-out: INHIBITION
The reply should be a number in %, with the unit left off.

These solved cases illustrate the format of a correct answer.
O=C(Cc1ccc(Br)cc1)N1CC(S(=O)(=O)C2CCCCC2)C1 :: -1.13
Cc1ncc(C)c(N2Cc3cnn(Cc4ccc(F)cc4)c3C2)n1 :: 3.3
CC(C)(C)NC(=O)COc1ccc(Oc2ccccn2)cc1 :: 7.32

I'd like to know its cytotoxicity at 10 µM. The compound in question is O=C(NC1CC1)[C@H]1C[C@H]2OCC[C@H]2N(Cc2cccnc2)C1
0.698

I'd like to know its cytotoxicity at 10 µM. The compound in question is COc1ccc(C[C@H]2CN(c3cc(OC)ncn3)CC[C@@H]2OC)cc1
50

I'd like to know its cytotoxicity at 10 µM. The compound in question is O=S(=O)(CCCc1ccccc1)Cc1nnnn1C1CC1
-1.01

I'd like to know its cytotoxicity at 10 µM. The compound in question is Cc1ccc(C#N)c(N2CCC3(CCCN(C4CCOCC4)C3=O)C2)n1 (configuration not stated)
-125

---

measurementDescription: Toxicity liver stage against HepG2, at 10uM
Format: cell-based
Design: test concentration 10 uM, cell line HepG2-A16-CD81EGFP
experimentalSetup: human, HepG2-A16-CD81EGFP cells; read-out: INHIBITION
Assign fulfilled to entries whose cytotoxicity at 10 µM meets or exceeds -10%; assign not fulfilled to the rest.

Solved cases (3 shown):
COc1ccc(C(NCc2cccc(C#N)c2)C2CC2)cc1 (stereo not drawn) :: fulfilled
CCN(C)c1ncnc2c1CCN(C(=O)Cc1ccccn1)CC2 :: fulfilled
CC(C)Nc1nc2c(cc1C(=O)NCC1CC1)CCN(C)CC2 :: fulfilled

Decide: is the reported value of cytotoxicity at 10 µM for Cc1nc(N2CCN(C(=O)c3ccsc3)CC2)c2cnn(C)c2n1 equal to or greater than -10%?
not fulfilled

Decide: is the reported value of cytotoxicity at 10 µM for NCc1cc(NCC(c2ccccn2)N2CCOCC2)ncn1 (stereo not drawn) equal to or greater than -10%?
not fulfilled

---

measurementDescription: Toxicity liver stage against HepG2, at 10uM
Format: cell-based
Design: test concentration 10 uM, cell line HepG2-A16-CD81EGFP
experimentalSetup: human, HepG2-A16-CD81EGFP cells; read-out: INHIBITION
// values below are reported cytotoxicity at 10 µM
The reply should be a number in %, with the unit left off.

CSCC(=O)N1CCOC(c2nc(C(C)C)n[nH]2)C1 (stereo unspecified) :: -4.99
O=S(=O)(NCC1OCCc2cn(CC3CCOCC3)nc21)C1CC1 (stereo unspecified) :: 11.2

I'd like to know its cytotoxicity at 10 µM. The compound in question is CC(C)c1nc(C2CCCN(C(=O)c3ccc4nccn4c3)C2)no1 (stereo unspecified)
-0.0722

I'd like to know its cytotoxicity at 10 µM. The compound in question is COCc1noc(CN2C[C@H](NS(C)(=O)=O)[C@@H](C3CC3)C2)n1
1.67

I'd like to know its cytotoxicity at 10 µM. The compound in question is O=C(c1ccccn1)N1C[C@H]2CCC[C@@]2(COCC2CCOCC2)C1
-76.3

I'd like to know its cytotoxicity at 10 µM. The compound in question is Cc1nc[nH]c1CN1CCN(C(=O)CCC(F)(F)F)[C@H]2CS(=O)(=O)C[C@H]21
-12.3

I'd like to know its cytotoxicity at 10 µM. The compound in question is CC(C)(C)NC(=O)Cn1cc(C(N)=O)c(-c2ccccc2)n1
-12.8

I'd like to know its cytotoxicity at 10 µM. The compound in question is Cc1ncncc1C(=O)N1CCCN(Cc2ncc(Cl)n2C)CC1
6.45

I'd like to know its cytotoxicity at 10 µM. The compound in question is O=C(CN1CCS(=O)(=O)CC1)NCc1cccc(Br)c1
6.32

I'd like to know its cytotoxicity at 10 µM. The compound in question is COC(=O)[C@H]1CN(C(=O)NC(C)C)CCN1C(=O)CSC
-6.52

I'd like to know its cytotoxicity at 10 µM. The compound in question is CCN1CCN(c2ccc(F)cc2C(C)NCc2nc(C)no2)CC1 (stereo unspecified)
-17.9

Values compiled from ChEMBL document CHEMBL4513216.
